These measurements were taken from ChEMBL document CHEMBL1255566.

Biological target: UniProt P18089
Sequence (P18089 whole entry): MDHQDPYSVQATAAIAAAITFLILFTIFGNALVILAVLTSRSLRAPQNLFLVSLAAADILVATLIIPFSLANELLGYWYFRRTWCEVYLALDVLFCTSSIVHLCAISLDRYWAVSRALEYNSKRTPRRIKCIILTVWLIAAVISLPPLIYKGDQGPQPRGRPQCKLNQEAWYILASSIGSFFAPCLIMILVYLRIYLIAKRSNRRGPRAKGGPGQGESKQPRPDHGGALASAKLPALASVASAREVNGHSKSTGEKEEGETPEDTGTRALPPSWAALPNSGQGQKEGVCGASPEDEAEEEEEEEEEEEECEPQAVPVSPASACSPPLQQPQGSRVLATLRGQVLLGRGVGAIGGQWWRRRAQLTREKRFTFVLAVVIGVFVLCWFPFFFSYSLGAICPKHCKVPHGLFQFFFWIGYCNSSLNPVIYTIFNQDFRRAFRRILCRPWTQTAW
ENDPOINT: log10 Ki (log10 of the value in nM)
Log scale reminder: Ki in nM, then log10 taken.

GET /values?readout=log10 Ki&system=UniProt P18089&item= CO[C@H]1c2ccccc2[C@H]2C[C@]21c1c[nH]cn1 (stereo in doubt; (+)-3)
0.45

Value wanted: log10 Ki (UniProt P18089) of entry CCC[C@H]1c2ccccc2[C@H]2C[C@]21c1c[nH]cn1 (relative stereo)
0.36

// lookup log10 Ki | system=UniProt P18089 | key= c1ccc2c(c1)C[C@]1(c3c[nH]cn3)C[C@H]21 (stereo in doubt; 1)
-0.94

Which log10 Ki is reported with UniProt P18089 for this entry: CO[C@H]1c2ccccc2[C@H]2C[C@]21c1c[nH]cn1 (stereo in doubt; (-)-3) ?
2.16

Item: "CCC1(c2cnc[nH]2)Cc2ccccc2C1" Test system: UniProt P18089 Read-out: log10 Ki Value: ?
0.35

Item CO[C@H]1c2ccccc2[C@H]2C[C@]21c1c[nH]cn1 (relative stereo) with UniProt P18089 - log10 Ki?
0.89

Find log10 Ki (UniProt P18089) for the entry CC(C)O[C@H]1c2ccccc2[C@H]2C[C@]21c1c[nH]cn1 (relative stereo)
1.07

Param readout= log10 Ki; system= UniProt P18089; entry= CCCO[C@H]1c2ccccc2[C@H]2C[C@]21c1cnc[nH]1 (relative stereo) ; returns value.
0.81

Item: CO[C@@H]1c2ccccc2[C@H]2C[C@]21c1cnc[nH]1 (relative stereo) Test system: UniProt P18089 Read-out: log10 Ki Value: ?
1.38

// lookup log10 Ki | system=UniProt P18089 | key= "CCC[C@H]1[C@@H]2c3ccccc3C[C@]12c1c[nH]cn1"
-0.46

For UniProt P18089, provide log10 Ki of CCO[C@H]1c2ccccc2[C@H]2C[C@]21c1c[nH]cn1 (relative stereo) please.
0.99

----------
Target: Alpha-2A adrenergic receptor (Homo sapiens)
Sequence (whole entry): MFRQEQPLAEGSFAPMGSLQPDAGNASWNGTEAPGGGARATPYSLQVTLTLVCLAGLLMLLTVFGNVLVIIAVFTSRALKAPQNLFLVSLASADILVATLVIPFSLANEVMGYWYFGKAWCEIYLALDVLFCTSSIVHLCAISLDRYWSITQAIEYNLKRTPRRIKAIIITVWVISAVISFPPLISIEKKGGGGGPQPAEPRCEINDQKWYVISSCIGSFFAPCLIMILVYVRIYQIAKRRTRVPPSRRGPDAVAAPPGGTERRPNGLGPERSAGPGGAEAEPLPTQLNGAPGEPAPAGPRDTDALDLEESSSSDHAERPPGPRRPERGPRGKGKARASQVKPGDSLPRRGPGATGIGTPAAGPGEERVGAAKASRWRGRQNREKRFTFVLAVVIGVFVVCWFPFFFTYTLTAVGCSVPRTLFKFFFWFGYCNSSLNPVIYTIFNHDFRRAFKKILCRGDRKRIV
Test: Antagonist activity at human adrenergic alpha2A receptor expressed in CHO cells assessed as inhibition of adrenaline-induced [35S]GTPgammaS binding after 30 mins by scintillation counting
Assay type: functional, cell-based
ENDPOINT: pKb
Output spec: single numeric token, no unit.

# query: pKb of entry c1ccc2c(c1)[C@H]1C[C@@]1(c1c[nH]cn1)C21CC1 (stereo in doubt; (-)-10)
7.75

For the compound c1ccc2c(c1)[C@H]1C[C@@]1(c1c[nH]cn1)C21CC1 (stereo in doubt; (+)-10) , what pKb is on record?
8.88

Fill blank: measured pKb of the compound c1ccc2c(c1)C[C@]1(c3c[nH]cn3)C[C@H]21 (stereo in doubt; (+)-1) is ____.
9.64

What does the record list as pKb for C[C@]12CC1(c1c[nH]cn1)Cc1ccccc12 (single isomer, unassigned) ?
8.66

What does the data say about its pKb? Entry: CCC[C@H]1c2ccccc2[C@H]2C[C@]21c1c[nH]cn1 (relative stereo)
8.7

Return reported pKb; argument: c1ccc2c(c1)C[C@]1(c3c[nH]cn3)C[C@H]21 (stereo in doubt; (-)-1)
10.2

Fill blank: measured pKb of the compound C[C@H]1c2ccccc2[C@H]2C[C@]21c1c[nH]cn1 (relative stereo) is ____.
9.54

Which value of pKb has been reported for CCCO[C@H]1c2ccccc2[C@H]2C[C@]21c1c[nH]cn1 (relative stereo) in the records?
8.16

GET /values?readout=pKb&item= CCC1(c2c[nH]cn2)Cc2ccc(F)cc2C1 (stereo not drawn)
7.84

Suppose we examine the compound CO[C@@H]1c2ccccc2[C@H]2C[C@]21c1c[nH]cn1 (relative stereo) ; what pKb value has been reported?
6.9

What pKb value was documented for this compound, CC1(C)C2c3ccccc3C[C@@]21c1c[nH]cn1 (single isomer, unassigned) ?
8.97

Would you kindly share the measured pKb for CC(C)O[C@H]1c2ccccc2[C@H]2C[C@]21c1c[nH]cn1 (relative stereo) ?
6.88

For CO[C@H]1c2ccccc2[C@H]2C[C@]21c1c[nH]cn1 (stereo in doubt; (+)-3) , what is its reported pKb?
8.54

----------
Hi there, I'd appreciate the recorded pKb for every entry that follows.
Target: UniProt P08913
Sequence (whole entry): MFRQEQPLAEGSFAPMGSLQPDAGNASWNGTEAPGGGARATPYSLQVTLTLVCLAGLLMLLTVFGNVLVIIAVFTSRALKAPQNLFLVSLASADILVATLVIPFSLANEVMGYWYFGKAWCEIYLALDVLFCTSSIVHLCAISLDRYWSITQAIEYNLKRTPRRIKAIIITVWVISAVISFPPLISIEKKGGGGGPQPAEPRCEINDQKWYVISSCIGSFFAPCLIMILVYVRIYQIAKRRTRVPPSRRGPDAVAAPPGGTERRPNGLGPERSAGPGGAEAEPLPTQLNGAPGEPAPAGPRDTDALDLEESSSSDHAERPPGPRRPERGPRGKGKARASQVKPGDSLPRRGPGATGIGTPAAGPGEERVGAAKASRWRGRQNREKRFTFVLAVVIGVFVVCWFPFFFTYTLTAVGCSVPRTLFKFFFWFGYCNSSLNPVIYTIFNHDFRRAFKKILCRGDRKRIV
Test: Antagonist activity at human adrenergic alpha2A receptor expressed in CHO cells assessed as inhibition of adrenaline-induced [35S]GTPgammaS binding after 30 mins by scintillation counting
Assay type: functional, cell-based

Form field: pKb recorded for "C[C@H]1[C@@H]2c3ccccc3C[C@]12c1c[nH]cn1" with UniProt P08913 (enter value)
9.67

Value wanted: pKb (UniProt P08913) of entry "CCC1(c2c[nH]cn2)Cc2ccccc2C1"
8.05

Observed pKb on UniProt P08913 for CO[C@H]1c2ccccc2[C@H]2C[C@]21c1c[nH]cn1 (relative stereo) , please.
8.28

Lab request: please report pKb under test system UniProt P08913 for "CCC[C@H]1[C@@H]2c3ccccc3C[C@]12c1c[nH]cn1"
9.24

Request body: readout pKb, system UniProt P08913, query CO[C@H]1c2ccccc2[C@H]2C[C@]21c1c[nH]cn1 (stereo in doubt; (-)-3) . Return the value.
6.44

Notebook: pull reported pKb for UniProt P08913, entry CCO[C@H]1c2ccccc2[C@H]2C[C@]21c1c[nH]cn1 (relative stereo)
8.36

Which pKb is reported with UniProt P08913 for this entry: c1ccc2c(c1)C[C@]1(c3c[nH]cn3)C[C@H]21 (stereo in doubt; 1) ?
9.78

Give recorded pKb with UniProt P08913 for the following compound: c1ccc2c(c1)[C@H]1C[C@@]1(c1c[nH]cn1)C21CC1 (stereo in doubt; 10)
9.05

Notebook entry, UniProt P08913 assay: pKb of CC[C@H]1c2ccccc2[C@H]2C[C@]21c1c[nH]cn1 (relative stereo) = ?
8.91
